Read-out: solute carrier (SLCO1B1), SLCO1B1 (gene 10599)
method: LTEA_HepaRG_SLCO1B1: Life Technologies and Expression Analysis (LTEA) Assay for solute carrier (SLCO1B1) using HepaRG (AID 2283530)
condition summary: mRNA level, 48 h; actives raise or lower the signal
The source made the active and inactive calls. How the source made its calls: active means hit-call score of the fitted dose curve at least 0.9, where 1 is the maximum; inactive means score below 0.9.
recorded metric: AC50

{"smiles code": "CCCCCCCCCCCC[N+](C)(C)C", "obs value": "88.1 µM (active)"}
{"smiles code": "CCN(Cc1cccc(S(=O)(=O)O)c1)c1ccc(C(=C2C=CC(=[N+](CC)Cc3cccc(S(=O)(=O)O)c3)C=C2)c2ccccc2S(=O)(=O)[O-])cc1", "obs value": "inactive"}
{"smiles code": "CCOC(=O)O[C@H](C)OC(=O)c1ccc2c(c1)cc(C(=O)NC1CCN(C(C)C)CC1)n2Cc1cc(-c2ccc(Cl)s2)on1", "obs value": "inactive"}
